Hey, just so you know, these numbers are from the RNAGym collection of RNA variant scans (doi:10.1021/acssynbio.7b00057).

B1: Pistol ribozyme (parent)
chain: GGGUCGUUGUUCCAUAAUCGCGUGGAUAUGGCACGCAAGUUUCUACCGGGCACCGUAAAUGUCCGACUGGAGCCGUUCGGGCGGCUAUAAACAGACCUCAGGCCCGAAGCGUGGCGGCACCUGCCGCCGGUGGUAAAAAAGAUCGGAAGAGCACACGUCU

# Variants of: B1
# PROCEDURE_TEXT: aptazyme ON/OFF ratio, guanine; higher = stronger switching; co-transcriptional cleavage with and without guanine
Task for the reader: assign each of the following variants its reported aptazyme ON/OFF ratio.
One number for each entry.

>>> print(df.to_string())
                          var            metric_name  quantitative_result
0  U7C U8G G9C U10A U11A C12G  aptazyme ON/OFF ratio                 1.14

Go through the items and report each one's aptazyme ON/OFF ratio.
1. U8G G9A U10C U11G C13U
2. U7C U8A G9C U10A C13A
3. U7G U8C G9C U10G U11G C13A

1: 1.09; 2: 1.17; 3: 1.1

// batch mode: one aptazyme ON/OFF ratio value per listed entry
1. U8C G9A U10A C12A
2. U7C U8C G9A U11G C12A C13U
3. U8A U10G U11A C12G C13A

[1.22, 1.59, 1.2]

Value sought for every listed variant: aptazyme ON/OFF ratio.
1. U7A U8C G9A C12A
2. U7C U8C U10C U11A
3. U8C G9A U10C U11A C12G C13G
4. U7G U8C G9C U10G U11G C12A
5. G9A U10C U11C
6. U7A U8C C12A C13G

1. 1.22
2. 1.9
3. 1.5
4. 1.17
5. 1.06
6. 1.11
